Test: Human HepG2 cell viability assay in 384 well format
Format: toxicity, cell-based
Set-up: dose 125 nL, time 70.5 hour; concentration not given beside the values
Settings: HepG2 cells, read-out: Inhibition
I'd appreciate it if you could supply cytotoxicity at 70.5 h values for the items below.
Express your answer in %, writing the number without its unit.

Summary for this compound, Cc1cc(CNC(=O)N2CCOC(c3ccccc3Cl)C2)no1 (configuration not stated) : cytotoxicity at 70.5 h is -7.66

Summary for this compound, O=C(Cn1cccn1)N1CCC(Oc2cnccn2)CC1 : cytotoxicity at 70.5 h is -6.46

Summary for this compound, CCS(=O)(=O)N1CCC2(CC1)CC1(CCN(CCOC)CC1)C(=O)N2C : cytotoxicity at 70.5 h is -6.01

Summary for this compound, CCN1C(=O)C(c2ccccc2)CC12CCN(Cc1cccnc1)CC2 (configuration not stated) : cytotoxicity at 70.5 h is -7.6

Summary for this compound, COc1ccc(CN2CCN(CC3CC3)[C@@H]3CS(=O)(=O)C[C@@H]32)cc1O : cytotoxicity at 70.5 h is -2.14

Summary for this compound, CC(C)CN1C(=O)CC[C@H]2CN(Cc3ncc[nH]3)CC[C@H]21 : cytotoxicity at 70.5 h is -3.44

Summary for this compound, CC1(C)CN(CC(F)(F)F)CCN1CC(=O)NC1CCCC1 : cytotoxicity at 70.5 h is -4.28

Summary for this compound, Cc1noc([C@@H]2C[C@H]3CN(Cc4ccc5c(c4)OCO5)C[C@H]3O2)n1 : cytotoxicity at 70.5 h is -16.8

Summary for this compound, O=C(NCc1nc(-c2ncccn2)no1)c1ccc(C2CCCO2)s1 (configuration not stated) : cytotoxicity at 70.5 h is 11.9

Summary for this compound, Cn1ccnc1-c1noc(NCc2ccc(Cl)cc2)n1 : cytotoxicity at 70.5 h is -8.5

Summary for this compound, CN(C)c1ncccc1C(=O)N1CCN(C2=NCC(C)(C)S2)CC1 : cytotoxicity at 70.5 h is 6.73

Summary for this compound, COc1ccccc1Oc1ncccc1CNC(=O)C1COC(=O)N1 (configuration not stated) : cytotoxicity at 70.5 h is -14.6

Summary for this compound, N#Cc1cccc(S(=O)(=O)NC2CCN(CC(F)(F)F)C2)c1 (configuration not stated) : cytotoxicity at 70.5 h is -15.4

Summary for this compound, CC1COCCN1C(=O)NCCn1ccnc1 (configuration not stated) : cytotoxicity at 70.5 h is -3.25

Summary for this compound, CN(Cc1nc(-c2ccco2)no1)C1CCCN(c2cccnn2)C1 (configuration not stated) : cytotoxicity at 70.5 h is -14.4

Summary for this compound, COCCC(=O)N1CCC2(CN(Cc3ccc(OC)c(F)c3)C2)C1 : cytotoxicity at 70.5 h is -9.17

Summary for this compound, N#Cc1cccc(N2CCCC3(CN(C(=O)[C@H]4CCCO4)CCO3)C2)c1 (some centres not stated) : cytotoxicity at 70.5 h is -0.958

Summary for this compound, CC(C)Oc1ncnc2c1CCN(Cc1cccs1)CC2 : cytotoxicity at 70.5 h is -6.72

Summary for this compound, O=C(Cc1ccc2c(c1)CCO2)Nc1ccc(-n2cncn2)nc1 : cytotoxicity at 70.5 h is 16.4

Summary for this compound, COc1cc(C(=O)N2C[C@H]3CC[C@@H]2CN(Cc2cscn2)C3)ccn1 : cytotoxicity at 70.5 h is -22.3

Summary for this compound, CCn1c(CN(C)C)nnc1C1CCN(Cc2ccc(Cl)cc2F)CC1 : cytotoxicity at 70.5 h is -0.622

Summary for this compound, O=C(CSCC1CC1)N1CCCC(c2nccn2Cc2cccnc2)C1 (configuration not stated) : cytotoxicity at 70.5 h is -9.29

Summary for this compound, Cn1cnc2c1CCN(Cc1csc(-c3ccc(F)cc3)n1)C2 : cytotoxicity at 70.5 h is -3.43

Summary for this compound, CC(C)(C)C1SCC(=O)Nc2c1c(O)nn2C1CCCC1 (configuration not stated) : cytotoxicity at 70.5 h is -21.9

Summary for this compound, NC(=O)C1CNCCN1C(=O)COc1ccccc1 (configuration not stated) : cytotoxicity at 70.5 h is -7.46

Summary for this compound, Cc1occc1C(=O)N1CCCS1(=O)=O : cytotoxicity at 70.5 h is -12

Summary for this compound, Cc1cc(C(F)(F)F)cc(=O)n1Cc1nc(C(C)C)no1 : cytotoxicity at 70.5 h is -14.9

Summary for this compound, Cc1ccc(NC2CCN(C(=O)c3c(C)nn(C)c3Cl)CC2)nn1 : cytotoxicity at 70.5 h is -2.32

Summary for this compound, COc1ccc2c(C)c(C(=O)NCCCc3csc(N)n3)oc2c1 : cytotoxicity at 70.5 h is 8.41

Summary for this compound, COCCn1ccnc1C1CCCN(c2ncnc3c2CCC3)C1 (configuration not stated) : cytotoxicity at 70.5 h is -0.0473

Summary for this compound, CC(=O)N1CCCN(C(=O)c2ccc(Sc3ccccn3)cc2)CC1 : cytotoxicity at 70.5 h is -8.48

Summary for this compound, O=C(NC1CCc2c(ccc(=O)n2CC2CC2)C1)c1ccsc1 (configuration not stated) : cytotoxicity at 70.5 h is -1.91

Summary for this compound, CS(=O)(=O)N1CCC(Oc2ccc(C(=O)NC3CCCC3)cc2Cl)CC1 : cytotoxicity at 70.5 h is -7.15

Summary for this compound, Cc1nn(CC(C)C)c(N(C)C)c1CNCc1cccnc1N(C)C : cytotoxicity at 70.5 h is -13.5

Summary for this compound, Cc1cccc(CN2CCCC(O)(CNCCc3c[nH]cn3)C2=O)c1 (configuration not stated) : cytotoxicity at 70.5 h is 9.08

Summary for this compound, COC[C@]1(O)CCN(C(=O)c2ccc(CN(C)C)o2)CC1(C)C : cytotoxicity at 70.5 h is -12.5

Summary for this compound, O=C(C[C@@H]1COC[C@H]2CN(C3CCCC3)C[C@@H]12)NCc1cccnc1 : cytotoxicity at 70.5 h is -8.82

Summary for this compound, Cc1ccc(CCC(=O)N2CCOCC2c2ncon2)c(C)c1 (configuration not stated) : cytotoxicity at 70.5 h is 13.3

Summary for this compound, O=C(c1cccc(CNCC2CNc3ccnn3C2)c1)N1CCCC1 (configuration not stated) : cytotoxicity at 70.5 h is 16.7

Summary for this compound, Cc1cc(CN2CCN(C(=O)NCc3ccc(C)s3)CC2)on1 : cytotoxicity at 70.5 h is -2.93

Summary for this compound, COc1ccc(CC(=O)NC(CC(=O)O)c2ccc(F)cc2)cc1OC (configuration not stated) : cytotoxicity at 70.5 h is -5.71

Summary for this compound, COCCn1c2c(ccc1=O)CCN(Cc1ccoc1)CC2 : cytotoxicity at 70.5 h is -3.82

Summary for this compound, CCOc1cncc(N(C)CC(=O)NC)n1 : cytotoxicity at 70.5 h is -7.85

Summary for this compound, CC1c2ncc(Cn3cncn3)n2CCN1C(=O)N(C)C (configuration not stated) : cytotoxicity at 70.5 h is -7.73

Summary for this compound, O=C(c1ccccc1)N1CCO[C@@H]2CN(Cc3ccc[nH]3)C[C@@H]2C1 : cytotoxicity at 70.5 h is 1.61

Summary for this compound, Fc1cnc(N2CCOCC3(CCCNC3)C2)nc1 (configuration not stated) : cytotoxicity at 70.5 h is 12.2

Summary for this compound, COC1(CNC(=O)c2ccsc2)CCSC1 (configuration not stated) : cytotoxicity at 70.5 h is -13

Value source: ChEMBL document CHEMBL3507680
